- Tested on: HL-1 cardiomyocytes, H2O2 injury, ATP luminescence, 2 h
- EXPERIMENT: H2O2-induced HL-1 cell death suppression – ATP luminescence, dose response (AID 602215);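 also: potency is for protection so actives raise ATP signal against peroxide damage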
Calls of active or inactive are those of the source.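 The calls were made as follows: active = IC50 of 20 µM or lower; inactive = the rest.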
Write down one outcome, taken from active, inactive

MOLECULE: CCn1c(O)c(/C=N/N=C/c2ccccc2)c2ccc(C3=NNC(=O)CC3)cc21
CATEGORY LABEL: inactive
--
MOLECULE: Cc1cc(C)c2c(N)c(C(=O)N/N=C/c3cccnc3)sc2n1
CATEGORY LABEL: inactive
--
MOLECULE: COc1ccc(-c2cc(C(=O)N(C)Cc3nc4ccccc4c(=O)[nH]3)c3ccccc3n2)cc1OC
CATEGORY LABEL: inactive
--
MOLECULE: COc1ccc(/C=N/NC(=O)c2ccc(COc3cccc4cccnc34)cc2)cc1OC
CATEGORY LABEL: active
--
MOLECULE: CC12C=CC(=O)CC1CCC1C2CCC2(C)C(O)C(O)CC12 (stereo not given)
CATEGORY LABEL: inactive

Lookup: Hi team, can someone confirm the assay call for O=C(Nc1cc(S(=O)(=O)N2CCOCC2)ccc1N1CCCCC1)c1cc(-c2ccccn2)nc2ccccc12 ?
Found: active

Lookup: Same again, this time with COc1cc(-c2cc(C(=O)OCC(=O)NC3CC3)c3ccccc3n2)cc(OC)c1OC
Found: active

Lookup: Now try O=C(CNC(=O)c1[nH]cnc1C(=O)NC(c1ccccc1)c1ccccc1)OCc1ccccc1 .
Found: inactive

Lookup: Item: COc1cc(/C=N/NC(=O)NC23CC4CC(CC(C4)C2)C3)ccc1OCC(N)=O
Found: inactive

Lookup: Also, COc1ccc(-c2cc(-c3nnc(COC(=O)C4CC4)o3)c3ccccc3n2)cc1OC please.
Found: inactive

// provenance: PubChem BioAssay AID602215
